test system: FMOC25_2 (patient-derived low-grade serous ovarian cancer cells); test: drug sensitivity score (DSS3, normalised partial AUC of % inhibition dose-response) (DSS (score)); higher = more sensitive (stronger inhibition of viability); extreme values may be limits of the assay; conditions: 72 h; library: FO5A; assay format: 2D, 384-well, CellTiter-Glo
Hi there, I'd appreciate the recorded drug sensitivity score for every entry that follows.
One number for each entry.

Compound	drug sensitivity score
COc1c(OCCCN2CCOCC2)ccc2c1N=C(NC(=O)c1cnc(N)nc1)N1CCN=C21 [Copanlisib]	16.8
CCc1c2c(nc3ccc(O)cc13)-c1cc3c(c(=O)n1C2)COC(=O)[C@]3(O)CC [SN-38]	29.1
Cn1c(=O)n(-c2ccc(C(C)(C)C#N)cc2)c2c3cc(-c4cnc5ccccc5c4)ccc3ncc21 [Dactolisib]	23.2
COc1ccc(-c2ccc3ncc4c(c3c2)n(-c2ccc(N3CCNCC3)c(C(F)(F)F)c2)c(=O)n4C)cn1 [NVP-BGT226]	26.7

Return reported drug sensitivity score values for all items listed beneath this line.
1. CCCCNc1ncc(C(=O)NCc2ccc(-n3ccnc3)cc2)c(NC2CCC(O)CC2)n1 (stereo not given) [UNC2881]
2. O=C(c1ccc(OCCN2CCCCC2)cc1)c1c(-c2ccc(O)cc2)sc2cc(O)ccc12 [Raloxifene]
3. Cc1cc(F)c(C(=O)Nc2cccc(-c3nncn3C(C)C)n2)cc1-n1cnc(C2CC2)c1 [Selonsertib]
4. NCCNc1ccc(NCCN)c2c1C(=O)c1ccncc1C2=O [Pixantrone]

result:
[1.8, 3.7, 0, 1.8]

Return reported drug sensitivity score values for all items listed beneath this line.
1. CO[C@H]1C[C@@H]2CC[C@@H](C)[C@@](O)(O2)C(=O)C(=O)N2CCCC[C@H]2C(=O)O[C@H]([C@H](C)C[C@@H]2CC[C@@H](OP(C)(C)=O)[C@H](OC)C2)CC(=O)[C@H](C)/C=C(\C)[C@@H](O)[C@@H](OC)C(=O)[C@H](C)C[C@H](C)/C=C/C=C/C=C/1C [Ridaforolimus]
2. O=C(NOCCO)c1ccc2cncn2c1Nc1ccc(I)cc1F [GDC-0623]

result:
[11.8, 11.2]

Numbers sourced from the supplement of paper PMC9938120.
